Tested on: Staphylococcus aureus
method.summary: Antimicrobial activity against heterogeneous vancomycin-intermediate Staphylococcus aureus assessed as susceptible isolates by agar dilution method
Assay type: functional

smi	Activity / %
CC(=O)NC[C@H]1CN(c2ccc(N3CCOCC3)c(F)c2)C(=O)O1	100
CN(C)c1cc(NC(=O)CNC(C)(C)C)c(O)c2c1C[C@H]1C[C@H]3[C@H](N(C)C)C(O)=C(C(N)=O)C(=O)[C@@]3(O)C(O)=C1C2=O	100
Nc1nc(/C(=N/O)C(=O)N[C@@H]2C(=O)N3C(C(=O)O)=C(/C=C4\CCN([C@@H]5CCNC5)C4=O)CS[C@H]23)ns1	100
CN[C@H](CC(C)C)C(=O)N[C@H]1C(=O)N[C@@H](CC(N)=O)C(=O)N[C@H]2C(=O)N[C@H]3C(=O)N[C@H](C(=O)N[C@H](C(=O)O)c4cc(O)cc(O)c4-c4cc3ccc4O)[C@H](O)c3ccc(c(Cl)c3)Oc3cc2cc(c3O[C@@H]2O[C@H](CO)[C@@H](O)[C@H](O)[C@H]2O[C@H]2C[C@](C)(N)[C@H](O)[C@H](C)O2)Oc2ccc(cc2Cl)[C@H]1O	96.3

====

Tested on: Staphylococcus aureus
method.summary: Antimicrobial activity against SCCmec type III vancomycin-intermediate Staphylococcus aureus isolate zj07028 by agar dilution method
Assay type: functional
The label yes is reserved for MIC strictly under 8 µg/mL; no covers values equal to or above it.

compound	assayed.system	label.value
CC(=O)NC[C@H]1CN(c2ccc(N3CCOCC3)c(F)c2)C(=O)O1 [LINEZOLID]	Staphylococcus aureus	yes
CO[C@H]1/C=C/O[C@@]2(C)Oc3c(C)c(O)c4c(O)c(c(/C=N/N5CCN(C)CC5)c(O)c4c3C2=O)NC(=O)/C(C)=C\C=C\[C@H](C)[C@H](O)[C@@H](C)[C@@H](O)[C@@H](C)[C@H](OC(C)=O)[C@@H]1C [RIFAMPIN]	Staphylococcus aureus	yes
CC[C@H]1OC(=O)[C@H](C)[C@@H](O[C@H]2C[C@@](C)(OC)[C@@H](O)[C@H](C)O2)[C@H](C)[C@@H](O[C@@H]2O[C@H](C)C[C@H](N(C)C)[C@H]2O)[C@](C)(O)C[C@@H](C)C(=O)[C@H](C)[C@@H](O)[C@]1(C)O [ERYTHROMYCIN]	Staphylococcus aureus	no
CN(C)c1cc(NC(=O)CNC(C)(C)C)c(O)c2c1C[C@H]1C[C@H]3[C@H](N(C)C)C(O)=C(C(N)=O)C(=O)[C@@]3(O)C(O)=C1C2=O [TIGECYCLINE]	Staphylococcus aureus	yes
CC[C@H]1OC(=O)[C@H](C)[C@@H](O[C@H]2C[C@@](C)(OC)[C@@H](O)[C@H](C)O2)[C@H](C)[C@@H](O[C@@H]2O[C@H](C)C[C@H](N(C)C)[C@H]2O)[C@](C)(OC)C[C@@H](C)C(=O)[C@H](C)[C@@H](O)[C@]1(C)O [CLARITHROMYCIN]	Staphylococcus aureus	no
Nc1nc(/C(=N/O)C(=O)N[C@@H]2C(=O)N3C(C(=O)O)=C(/C=C4\CCN([C@@H]5CCNC5)C4=O)CS[C@H]23)ns1 [CEFTOBIPROLE]	Staphylococcus aureus	yes
Cc1onc(-c2ccccc2)c1C(=O)N[C@@H]1C(=O)N2[C@@H]1SC(C)(C)[C@@H]2C(=O)O [OXACILLIN]	Staphylococcus aureus	no

Cited source for all entries: ChEMBL document CHEMBL1649574
